// provenance: patent US20250236627A1

# ASSAYED TARGET: human GLP-1R receptor (Homo sapiens, UniProt P43220, L260F)
# Sequence (P43220 24-463 L260F): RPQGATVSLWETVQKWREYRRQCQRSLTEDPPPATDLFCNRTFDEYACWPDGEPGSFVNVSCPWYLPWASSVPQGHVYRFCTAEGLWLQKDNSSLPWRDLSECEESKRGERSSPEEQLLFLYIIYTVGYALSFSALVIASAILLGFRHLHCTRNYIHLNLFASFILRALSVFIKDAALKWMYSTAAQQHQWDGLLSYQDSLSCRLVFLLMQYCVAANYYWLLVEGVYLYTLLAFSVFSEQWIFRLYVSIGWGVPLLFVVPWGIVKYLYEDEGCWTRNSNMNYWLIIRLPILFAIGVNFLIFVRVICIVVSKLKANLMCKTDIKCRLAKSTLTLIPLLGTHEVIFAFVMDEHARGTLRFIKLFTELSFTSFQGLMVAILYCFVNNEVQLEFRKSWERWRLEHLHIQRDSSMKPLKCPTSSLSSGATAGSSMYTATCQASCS
# ASSAY TEXT: CHOK1 GLP-1R cAMP Assay
# TEST SETTINGS: CHO-K1 cell line stably expressing human GLP-1R; HTRF cAMP detection
pEC50: −log10 of the molar value.
READOUT LABEL: pEC50

C[C@]1(c2ccc(Cl)cc2F)Oc2cccc(N3CCN(Cc4nc5c(Cl)cc(C(=O)O)cc5n4C[C@@H]4CCO4)[C@H]4COC[C@H]43)c2O1 (single isomer, unassigned) [Example 15d]
6.72
C[C@]1(c2ccc(Cl)cn2)Oc2cccc(N3CCN(Cc4nc5c(F)cc(C(=O)O)cc5n4CC4(C#N)CC4)[C@H]4COC[C@H]43)c2O1 (single isomer, unassigned) [Example 22a]
8.57

[a] C[C@]1(c2ccc(Cl)cn2)Oc2cccc(N3CCN(Cc4nc5c(Cl)cc(C(=O)O)cc5n4CC4(C#N)CC4)[C@H]4COC[C@H]43)c2O1 (single isomer, unassigned) [Example 23b]
[b] C[C@]1(c2ccc(Cl)cc2F)Oc2cccc(N3CCN(Cc4nc5c(F)cc(C(=O)O)cc5n4C[C@@H]4CCO4)[C@H]4COC[C@H]43)c2O1 (single isomer, unassigned) [Example 16a]
[c] C[C@]1(c2ccc(Cl)cn2)Oc2cccc(N3CCN(Cc4nc5c(F)cc(C(=O)O)cc5n4C[C@@H]4CCO4)[C@H]4COC[C@H]43)c2O1 (single isomer, unassigned) [Example 9d]
Ordering criterion: pEC50; begin with the maximum. Give the labels in the order specified.
b, a, c
(b: 8.92, a: 7.11, c: 6.49)
